Experiment: changes in parasitized red cell lysis, either direction – P. falciparum Indochina, OD700, 3 h, PSAC antagonist project, primary screen (AID 1156)
Details: P. falciparum-infected erythrocytes, osmotic lysis, higher = more signal, called active from +8 up or from −8 down
Readout type: z-score
The response must contain the number and no unit.

C[C@H]1NC(=O)C([C@@H](C)OCc2ccccc2)NC(=O)[C@@]23C(=O)N[C@@H](Cc4ccccc4)C2[C@H](C)[C@@]2(C)O[C@H]2C3/C=C/CC/C=C/CNC1=O (stereo not given in full) | 0.89

Which z-score is listed for `C=C(C(=O)CC[C@H](OC(=O)c1cccnc1)c1ccc(OCCO)cc1)C(C)C` ? 1.01

Which z-score is listed for `[N-]=[N+]=NCc1ccccc1C[C@]1(C(=O)NCCN2CCOCC2)COC(c2ccc(OCCCO)cc2)=N1` ? 3.35

Which z-score is listed for `COc1ccc([Si](C)(C)[C@H]2[C@H](CCn3cc(CCO)nn3)O[C@@]3(C(=O)N(Cc4cccc(N5C(=O)c6cccc7cccc5c67)c4)c4ccccc43)[C@@H]2C)cc1` ? 1.32

Which z-score is listed for `C[N+](C)(C)CCCCCCNC(=O)[C@@H]1C[C@@H]2C(=O)NCC(=O)N2[C@@H]1c1cccc(OCCO)c1` ? 1.56

Which z-score is listed for `CC(C)CNC(=O)[C@@]1(C)c2ccccc2C(=O)N(Cc2ccccc2)[C@H]1c1ccc(CO)cc1` ? 0.709

Which z-score is listed for COC(=O)c1ccc(OC)c(/C=C\CC(CCc2ccccc2)OC(=O)c2ccncc2)c1 (stereo not given) ? 0.533

###

System: Lefty1
Test: Lefty1 protein binding to printed compounds – biochemical, small-molecule microarray, 635/667 nm fluorescence, primary screen (AID 1139)
Details: fluorescence 635/667, higher = more signal
Readout type: composite z-score
The response must contain the number and no unit.

Identify the measured composite z-score of `C=CCOC(=O)[C@H]1[C@@H]2C(=O)O[C@@H](c3ccccc3)[C@@H](c3ccccc3)N2[C@@H](c2ccc(OCCOC(=O)[C@H]3C[C@H]4C(=O)N[C@@H](CCCCN(C)C)C(=O)N4[C@H]3c3ccc(O)cc3)cc2)[C@]12C(=O)Nc1ccccc12` for Lefty1. 1.5

Identify the measured composite z-score of `COCCOC(=O)N1C(=O)[C@@]2(c3cc(C#Cc4ccc(OC)cc4)ccc31)[C@H](C(=O)N1CCc3cc(OC)c(OC)cc3C1)[C@H]1C(=O)O[C@H](c3ccccc3)[C@H](c3ccccc3)N1[C@@H]2c1ccc(OCCO)cc1` for Lefty1. 0.88

###

System: Plasmodium falciparum Sir2 (PF13_0152, Sir2A)
Experiment: Plasmodium falciparum Sir2A binding compounds – biochemical, small-molecule microarray, 635 nm fluorescence, primary screen (AID 1098);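 note: score merges spot fluorescence intensity with its signal-to-noise ratio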
Details: fluorescence 635 nm, higher = more signal
Readout type: composite z-score
The response must contain the number and no unit.

CC1C=C(CCCO)C=C(C(=O)OCCS(C)(=O)=O)C(C(=O)OCCS(C)(=O)=O)=CN1Cc1cccc(OC(F)(F)F)c1 (centres undefined) | 1.11
CN(C)CCCC[C@@H]1NC(=O)[C@H]2C[C@@H](C(=O)NCCCCCCNC(=O)CS)[C@@H](c3ccc(O)cc3)N2C1=O | 1.74
CC(C)CCC[C@@H](C)[C@H]1CC[C@@]2(C)C3=C(CC[C@]12C)[C@@]1(C)CC[C@H](OC(=O)C(C)(C)C)C(C)(C)C1CC3 (some centres undefined) | -0.0682
CC(C)NC(=O)[C@@H]1c2ccccc2C(=O)N(Cc2cc(C(F)(F)F)cc(C(F)(F)F)c2)[C@H]1c1ccc(CO)cc1 | 0.46

Which composite z-score is listed for `O=C1N(CCS(=O)(=O)c2ccccc2)Cc2ccccc2C[C@@]12COC(c1ccc(OCCCO)cc1)=N2` ? 1.69

Which composite z-score is listed for `CCCN1C(=O)[C@@H]2Cc3c([nH]c4ccccc34)[C@@H](c3cccc(O)c3)N2C1=O` ? 0.292

Which composite z-score is listed for C=C(C)[C@@H]1CC=C(C(O)C2C=CC3C(=O)N(C4CCCCC4)C(=O)C3N2Nc2ccc(OC)cc2)CC1 (some centres undefined) ? 1.37

Which composite z-score is listed for `COC(=O)C(CC#Cc1ccc2c(c1)[C@]1(C(=O)N2)[C@H](c2ccc(OCCO)cc2)N2[C@H](c3ccccc3)[C@H](c3ccccc3)OC(=O)[C@H]2[C@@H]1C(=O)O)C(=O)OC` ? 1.78

Which composite z-score is listed for `CC(C)(C)OC(=O)CC[C@]1(C(=O)N2CCCCC2)N=C(c2ccc(OCCCO)cc2)O[C@H]1c1ccccc1CN=[N+]=[N-]` ? 1.68

Which composite z-score is listed for `COc1ccc(C#Cc2ccc3c(c2)[C@]2(C(=O)N3)[C@H](c3ccc(OCCO)cc3)N3[C@H](c4ccccc4)[C@H](c4ccccc4)OC(=O)[C@H]3[C@@H]2C(=O)N2CCN(c3ncccn3)CC2)cc1` ? 1.12

Which composite z-score is listed for N#Cc1ccc(NN2C(C(O)c3ccccc3)C=CC3C(=O)N(c4ccccc4)C(=O)C32)cc1 (centres undefined) ? 1.3

Which composite z-score is listed for `COC(=O)c1c(CC[C@@H](CO)NC(=O)N[C@@H](C)Cn2cc(C3(O)CCCC3)nn2)oc(C(C)=O)c1C(=O)OC` ? 0.513

Which composite z-score is listed for C=CCC(OC(C)=O)[C@@H]1[C@@H](N(Cc2ccc(-c3ccccc3)cc2)C(=O)c2cccc3ccccc23)c2cc(OCCCO)ccc2N1C(=O)c1ccc2ccccc2n1 (some centres undefined) ? -0.0429

Which composite z-score is listed for `C=CCNC(=O)[C@@H]1[C@H]2C(=O)O[C@H](c3ccccc3)[C@H](c3ccccc3)N2[C@H](c2ccc(O)cc2)[C@@]12C(=O)Nc1ccc(C#CCCO)cc12` ? 1.84
